Provenance of the data: the Kinase Knowledgebase extract (Sharma et al. 2016)

molecular target: CDK2 (UniProt P24941); assay: Enzyme Assay; settings: concentration not given here
quantity name: inhibition (%)

Some molecules with recorded inhibition:
CS(=O)(=O)c1ccccc1S(=O)(=O)Nc1ccc2[nH]nc(/C=C/c3ccccc3)c2c1 : 96
Nc1n[nH]c2ccc(NS(=O)(=O)c3c(F)cccc3F)cc12 : 12
CS(=O)(=O)c1ccccc1S(=O)(=O)Nc1ccc2[nH]nc(-c3ccc(OCc4ccccc4)c(F)c3)c2c1 : 41

(A) CC(C)(C)c1ccc(-c2n[nH]c3ccc(NS(=O)(=O)c4ccccc4S(C)(=O)=O)cc23)cc1
(B) CS(=O)(=O)c1ccccc1S(=O)(=O)Nc1ccc2[nH]nc(-c3cc4ccccc4s3)c2c1
## Input Higher inhibition between A and B ? State the label of the item chosen.
## Output B
(B: 63%, A: 0%)

(a) CCSc1ccc(-c2n[nH]c3ccc(NS(=O)(=O)c4ccccc4S(C)(=O)=O)cc23)cc1
(b) COC(=O)/C=C/c1n[nH]c2ccc(NS(=O)(=O)c3ccccc3S(C)(=O)=O)cc12
(c) CN(C)c1c(F)c(F)c(S(=O)(=O)Nc2ccc3[nH]nc(-c4cc5ccccc5[nH]4)c3c2)c(F)c1F
(d) C[Si](C)(C)C#Cc1cccc(-c2n[nH]c3ccc(NS(=O)(=O)c4ccccc4S(C)(=O)=O)cc23)c1
## Input Could you please sort these 4 entries by inhibition from high to low? Sort and list the labels as requested.
## Output a, c, b, d

(P) CS(=O)(=O)c1ccccc1S(=O)(=O)Nc1ccc2[nH]nc(-c3ccc(OC(F)(F)F)cc3)c2c1
(Q) CS(=O)(=O)c1ccccc1S(=O)(=O)Nc1ccc2[nH]nc(-c3cc4ccccc4[nH]3)c2c1
(R) CCOc1ccccc1-c1n[nH]c2ccc(NS(=O)(=O)c3ccccc3S(C)(=O)=O)cc12
## Input In this exercise, place the 3 molecules in ascending sequence of their recorded inhibition. Sort and list the labels as requested.
## Output R, P, Q
(R: 31%, P: 61%, Q: 99%)

(a) CS(=O)(=O)c1ccccc1S(=O)(=O)Nc1ccc2[nH]nc(-c3ccc(C(=O)O)cc3)c2c1
(b) CS(=O)(=O)c1ccccc1S(=O)(=O)Nc1ccc2[nH]nc(-c3ccc(Cl)cc3)c2c1
(c) CS(=O)(=O)c1ccccc1S(=O)(=O)Nc1ccc2[nH]nc(-c3ccc(OCc4ccccc4)cc3)c2c1
## Input In this exercise, place the 3 molecules in ascending sequence of their recorded inhibition. Sort and list the labels as requested.
## Output c, a, b
